- Protocol description: pKa (acid dissociation constant) of dispersing agents and acids
- Assay type: physicochemical
- Particulars: acid of pretreatment solution; second listed pKa value
Measurement type: pKa

{"Compound structure": "O=C(O)/C=C\\C(=O)O", "Experimental value": 5.8}

Where do the numbers come from? From patent US7669997B2.
